Ref: paper PMC9279676

Biological target: T1, full-length human SUFU protein, 35S-radiolabeled (human, UniProt Q9UMX1-1 1-484, [35S]-methionine label)
T1 construct: human SUFU, full length, residues 1-484, from plasmid pGEM4Z-SUFU; also called 35S-SUFU; radiolabeled SUFU; source: in vitro transcription and translation (SP6, Promega), partially purified by ammonium sulfate precipitation
T1 sequence (looked up): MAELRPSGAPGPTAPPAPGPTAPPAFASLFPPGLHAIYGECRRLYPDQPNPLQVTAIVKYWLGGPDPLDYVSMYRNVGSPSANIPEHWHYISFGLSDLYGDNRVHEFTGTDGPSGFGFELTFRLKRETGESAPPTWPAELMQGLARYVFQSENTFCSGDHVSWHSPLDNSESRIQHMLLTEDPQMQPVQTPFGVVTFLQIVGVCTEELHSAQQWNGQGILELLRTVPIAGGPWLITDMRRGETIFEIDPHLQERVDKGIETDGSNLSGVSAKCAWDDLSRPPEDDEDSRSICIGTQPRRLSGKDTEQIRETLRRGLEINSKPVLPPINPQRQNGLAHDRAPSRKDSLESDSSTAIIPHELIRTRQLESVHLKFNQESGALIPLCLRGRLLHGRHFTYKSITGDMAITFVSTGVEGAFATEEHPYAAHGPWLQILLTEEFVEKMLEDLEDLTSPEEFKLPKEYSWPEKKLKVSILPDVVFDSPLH
Assay: pull-down; purified GST-GLI1_(68-232) variants (mock treated or ERK2 phosphorylated), 0 or 1.25-80 nM, on glutathione-Sepharose beads; ∼1 pmol 35S-SUFU in 200 μl; 15 min at 30°C, then 1 h at room temperature; Binding Buffer (20 mM Tris-HCl pH 7.5, 125 mM KOAc, 0.5 mM EDTA, 5 mM DTT, 0.1% Tween20, 12.5% glycerol) + 1 mg/ml BSA; bound SUFU quantified by SDS-PAGE and Phosphorimager; Kd from binding isotherms
Settings: one partner purified
reported_endpoint: pKd
When answering, recall that pKd equals minus log10 of the concentration in mol/L, and write that number alone.

Request: Data request, read-out pKd, for GST-GLI1^SSS, phosphorylated by ERK2 (domain or fragment, human, UniProt P08151-1 68-232, looked up, phosphorylated by ERK2; intact SP sites S102, S116, S130, only S102, S116 and S130 left intact; also called ERK-phosphorylated GLI1^SSS; phosphorylated GLI1^SSS mutant; source: bacteria, purified (glutathione-Sepharose); then phosphorylated with purified active ERK2) FSAPRSAVKLTKKRALSIAPLSDASLDLQTVIRTSPSSLVAFINSRCTSPGGSYGHLSIGTMSPSLGFPAQMNHQKGPAPSFGVQPCGPHDSARGGMIPHPQSRGPFPTCQLKSELDMLVGKCREEPLEGDMSAPNSTGIQDPLLGMLDGREDLEREEKREPESV
Response: 6.90

Request: Would you mind doing GST-GLI1^S102,S130, phosphorylated by ERK2 (domain or fragment, human, UniProt P08151-1 68-232, looked up, phosphorylated by ERK2; intact SP sites S102, S130, only the SP sites S102 and S130 intact; also called ERK2-treated GLI1^S102,S130; source: bacteria, purified (glutathione-Sepharose); then phosphorylated with purified active ERK2) FSAPRSAVKLTKKRALSIAPLSDASLDLQTVIRTSPSSLVAFINSRCTAPGGSYGHLSIGTMSPSLGFPAQMNHQKGPAPSFGVQPCGPHDSARGGMIPHPQSRGPFPTCQLKSELDMLVGKCREEPLEGDMSAPNSTGIQDPLLGMLDGREDLEREEKREPESV as well?
Response: 7.60

Request: Would you mind doing GST-GLI1^S102,S116, phosphorylated by ERK2 (domain or fragment, human, UniProt P08151-1 68-232, looked up, phosphorylated by ERK2; intact SP sites S102, S116, only the SP sites S102 and S116 intact; also called ERK2-treated GLI1^S102,S116; source: bacteria, purified (glutathione-Sepharose); then phosphorylated with purified active ERK2) FSAPRSAVKLTKKRALSIAPLSDASLDLQTVIRTSPSSLVAFINSRCTSPGGSYGHLSIGTMAPSLGFPAQMNHQKGPAPSFGVQPCGPHDSARGGMIPHPQSRGPFPTCQLKSELDMLVGKCREEPLEGDMSAPNSTGIQDPLLGMLDGREDLEREEKREPESV as well?
Response: 7.37

Request: Would you mind doing GST-GLI1^AAA, treated with active ERK2 (domain or fragment, human, UniProt P08151-1 68-232, looked up, treated with ERK2; S70, S86, S146 and S201 remained intact as possible phosphosites, also called GLI1^AAA + ERK2; source: bacteria, purified (glutathione-Sepharose); then phosphorylated with purified active ERK2) FSSPRSAVKLTKKRALSISPLSDASLDLQTVIRTAPSSLVAFINSRCTAPGGSYGHLSIGTMAPSLGFPAQMNHQKGPSPSFGVQPCGPHDSARGGMIPHPQSRGPFPTCQLKSELDMLVGKCREEPLEGDMSSPNSTGIQDPLLGMLDGREDLEREEKREPESV as well?
Response: 7.70
